# merged literature set: pIC50 with DGKζ (Homo sapiens, UniProt Q13574)
Entry type: numeric. Quantity: pIC50, the -log10 of concentration in molar units.

query: I have this compound here, CC[C@H]1CN(C(C)c2ccc(C(C)(F)F)cc2)[C@H](CC)CN1c1cc(=O)n(C)c2cn(CC#N)nc12 (stereo partly drawn) , and I need its recorded pIC50.
result: 6.98

query: Repeat with CC[C@H]1CN([C@H](c2ccc(SC(F)(F)F)cc2)c2nc(C3CC3)no2)[C@H](CC)CN1c1nc(=O)n(C)c2ccc(C#N)nc12 (stereo in doubt)
result: 7.28

query: Repeat with CC(C)(c1nnc(-c2cc3c(cc2F)C(F)(F)C[C@@H](N)C(=O)N3Cc2ccc(-n3cc(C(F)(F)F)cn3)cc2)o1)S(C)(=O)=O (single isomer, unassigned)
result: 4.86

query: Repeat with `N#Cc1ccc2c(n1)c(N1CCC3(CC1)CC(c1ccc(SC(F)(F)F)cc1)=NO3)nc1nncn12`
result: 6.61

query: Repeat with CC[C@H]1CN(C(C)c2ccc(OC3CCOC3)cc2F)[C@H](CC)CN1c1cc(=O)n(C)c2cn(CC#N)nc12 (stereo partly drawn)
result: 6.49

====

# merged literature set: pIC50 with DGKζ (Homo sapiens, UniProt Q13574)
Entry type: numeric. Quantity: pIC50, the -log10 of concentration in molar units.

Below: 5 molecules and their reported pIC50.
[
  {
    "molecule": "CC[C@H]1CN(C(C)c2ccc(COC)cc2)[C@H](CC)CN1c1cc(=O)n(C)c2cn(CC#N)nc12 (stereo partly drawn)",
    "tested target": "DGKζ (Homo sapiens, UniProt Q13574)",
    "pIC50": 6.85
  },
  {
    "molecule": "CC(C)(c1nnc(-c2cc3c(cc2F)C(F)(F)C[C@@H](N)C(=O)N3Cc2ccc(-c3ccc(OC(F)(F)F)cn3)cc2)o1)S(C)(=O)=O (single isomer, unassigned)",
    "tested target": "DGKζ (Homo sapiens, UniProt Q13574)",
    "pIC50": 5.05
  },
  {
    "molecule": "Cn1c(=O)c(C(N)=O)c(N2CCC3(CCN(c4ccc(OC(F)(F)F)cc4)C3)CC2)c2nc(C#N)ccc21",
    "tested target": "DGKζ (Homo sapiens, UniProt Q13574)",
    "pIC50": 6.11
  },
  {
    "molecule": "N[C@@H]1CC(F)(F)c2cc(F)c(-c3nnc(N4CCOC5(CC5)C4)o3)cc2N(Cc2ccc(-c3noc(C(F)(F)F)n3)cc2)C1=O (single isomer, unassigned)",
    "tested target": "DGKζ (Homo sapiens, UniProt Q13574)",
    "pIC50": 5.49
  },
  {
    "molecule": "CC[C@H]1CN(C(C)c2ccc(CC#N)cc2)[C@H](CC)CN1c1cc(=O)n(C)c2cn(CC#N)nc12 (stereo partly drawn)",
    "tested target": "DGKζ (Homo sapiens, UniProt Q13574)",
    "pIC50": 6.19
  }
]

query: I have this molecule here, CCC(c1ccn2nc(C)cc2n1)N1C[C@H](C)N(c2cc(=O)n(C)c3cc(CC#N)nn23)C[C@H]1CC (stereo partly drawn) , and I need its recorded pIC50.
result: 6.58

query: Repeat with CC(C)(C#N)c1nnc(-c2cc3c(cc2F)C(F)(F)C[C@@H](N)C(=O)N3Cc2ccc(-c3ccc(C(F)F)cn3)cc2)o1 (single isomer, unassigned)
result: 5.60

query: Repeat with CC[C@@H]1CN(c2nc3nncn3c3ccc(C#N)nc23)[C@@H](C)CN1[C@@H](CC)c1ccc(S(F)(F)(F)(F)F)cc1 (stereo in doubt)
result: 7.57

query: Repeat with CC[C@H]1CN(C(C)c2cnc3c(c2)ncn3C)[C@H](CC)CN1c1cc(=O)n(C)c2cn(CC#N)nc12 (stereo partly drawn)
result: 5.73

====

# merged literature set: pIC50 with DGKζ (Homo sapiens)
Entry type: numeric. Quantity: pIC50, the -log10 of concentration in molar units.

Below: 5 compounds and their reported pIC50.
[
  {
    "compound": "CC[C@H]1CN(C(C)c2ccc(C3CC3)cn2)[C@H](CC)CN1c1cc(=O)n(C)c2cn(CC#N)nc12 (stereo partly drawn)",
    "pIC50": 7.00
  },
  {
    "compound": "CCc1ccc(C(C)N2C[C@H](CC)N(c3cc(=O)n(C)c4cn(CC#N)nc34)C[C@H]2CC)cc1 (stereo partly drawn)",
    "pIC50": 6.82
  },
  {
    "compound": "CC[C@H]1CN(C(C)c2ccc3ncsc3c2)[C@H](CC)CN1c1c(Br)c(=O)n(C)c2cn(CC#N)nc12 (stereo partly drawn)",
    "pIC50": 6.01
  },
  {
    "compound": "CC(F)(F)c1ccc(-c2ccc(CN3C(=O)[C@H](N)CC(F)(F)c4cc(F)c(-c5nnc(C(C)(C)C#N)o5)cc43)cc2)nc1 (single isomer, unassigned)",
    "pIC50": 6.87
  },
  {
    "compound": "CC[C@H]1CN(C(C)c2ccc3ocnc3c2)[C@H](CC)CN1c1cc(=O)n(C)c2cn(CC#N)nc12 (stereo partly drawn)",
    "pIC50": 6.80
  }
]

query: I have this compound here, CC[C@H]1CN(C(CO)c2ccc(S(F)(F)(F)(F)F)cc2)[C@H](CC)CN1c1nc(=O)n(C)c2ccc(C#N)nc12 (stereo partly drawn) , and I need its recorded pIC50.
result: 7.09

query: Repeat with CC(C)(C#N)c1nnc(-c2cc3c(cc2F)C(F)(F)C[C@@H](N)C(=O)N3Cc2ccc(Oc3ccccc3)cc2)o1 (single isomer, unassigned)
result: 7.69

query: Repeat with CC[C@H]1CN([C@H](CC)c2ccc(OC(F)(F)F)cc2)[C@H](CC)CN1c1nc2nncn2c2ccc(C#N)nc12 (stereo in doubt)
result: 6.63

====

# merged literature set: pIC50 with DGKζ (Homo sapiens, UniProt Q13574)
Entry type: numeric. Quantity: pIC50, the -log10 of concentration in molar units.

Below: 2 compounds and their reported pIC50.
[
  {
    "compound": "CC[C@H]1CN([C@@H]2CCCCc3cc(C(F)(F)F)ccc32)[C@H](CC)CN1c1nc2nncn2c2ccc(C#N)nc12",
    "tested target": "DGKζ (Homo sapiens, UniProt Q13574)",
    "property measured": "pIC50",
    "value reported": 8.40
  },
  {
    "compound": "CC[C@H]1CN(C(C)c2ccc(OC(C)C)cn2)[C@H](CC)CN1c1cc(=O)n(C)c2cn(CC#N)nc12 (single isomer, unassigned)",
    "tested target": "DGKζ (Homo sapiens, UniProt Q13574)",
    "property measured": "pIC50",
    "value reported": 6.86
  }
]

# next compound below
query: I have this compound here, CC(C)(C#N)c1nnc(-c2cc3c(cc2F)C(F)(F)C[C@@H](N)C(=O)N3Cc2ccc(-c3cnn(C(F)(F)F)c3)cc2)o1 (single isomer, unassigned) , and I need its recorded pIC50.
result: 5.31

====

# merged literature set: IC50 with UniProtKB Q13574
Report only the number, with the unit nM understood.

Below: 5 compounds and their reported IC50.
[
  {
    "compound": "CC(C)(C#N)c1nnc(-c2cc3c(cc2F)C(F)(F)C[C@@H](N)C(=O)N3Cc2ccc(-n3cc(C(F)(F)F)cn3)nc2)o1 (single isomer, unassigned)",
    "tested target": "UniProtKB Q13574",
    "IC50 / nM": 6750
  },
  {
    "compound": "CC[C@H]1CN(C(C)c2cc3c(cc2F)OC(C)(C)CO3)[C@H](CC)CN1c1cc(=O)n(C)c2cn(CC#N)nc12 (some centres unmarked)",
    "tested target": "UniProtKB Q13574",
    "IC50 / nM": 7.8
  },
  {
    "compound": "CC[C@@H]1C[C@H](c2nc3cc(C)ccc3o2)CCN1c1nc(=O)n(C)c2cc(O[C@H]3CCOC3)c(Cl)cc12",
    "tested target": "UniProtKB Q13574",
    "IC50 / nM": 6060
  },
  {
    "compound": "COc1ccc(-c2ccc(CN3C(=O)[C@H](N)CC(F)(F)c4cc(F)c(-c5nnc(C(C)(C)C#N)o5)cc43)cc2)cc1 (single isomer, unassigned)",
    "tested target": "UniProtKB Q13574",
    "IC50 / nM": 32.6
  },
  {
    "compound": "CC[C@H]1CN(C(C)c2ccc(C(F)(F)F)c(C)n2)[C@H](CC)CN1c1cc(=O)n(C)c2cn(CC#N)nc12 (some centres unmarked)",
    "tested target": "UniProtKB Q13574",
    "IC50 / nM": 83
  }
]

# next compound below
query: I have this compound here, CC(C)(C)c1nnc(-c2cc3c(cc2F)C(F)(F)C[C@@H](N)C(=O)N3Cc2ccc(OC3CCCC3)cc2)o1 (single isomer, unassigned) , and I need its recorded IC50.
result: 1730
